These measurements were taken from PubChem BioAssay.

We begin with a simple list: items and their reported composite z-score.
System: Inhibin beta A chain (activin A)
Assay: small molecules binding activin A – biochemical, small-molecule microarray, 635 nm fluorescence scan, primary screen (AID 1107);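 further: mouse activin A protein probed at 4.33 µg/mL on printed slides; score merges bound-protein fluorescence near 667 nm with spot signal-to-noise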
Details: INHBA, higher = more signal
measurement name: composite z-score

>  <compound>
COC(=O)[C@@]1(Cc2ccccc2)[C@H]2c3cc(C(=O)N(C)C)n(Cc4ccc(O)c(OC)c4)c3C[C@H]2CN1C(=O)c1ccccc1

>  <measurement name>
composite z-score

>  <reported value>
0.637

$$$$
>  <compound>
CCOC(=O)C[C@H]1[C@H](OC(=O)Cc2ccc3c(c2)OCO3)[C@@H](NC(=O)c2ccccc2)c2cc(OCCCO)ccc2N1C(=O)c1ccc2ccccc2n1

>  <measurement name>
composite z-score

>  <reported value>
0.318

$$$$
>  <compound>
CN(C)CCCN1C(=O)[C@@]2(Cc3ccccc31)c1ccccc1C(=O)N(Cc1ccccc1)[C@H]2c1ccc(CO)cc1

>  <measurement name>
composite z-score

>  <reported value>
0.799

$$$$
>  <compound>
CC(C)NC(=O)[C@@H]1c2ccccc2C(=O)N(Cc2cc(C(F)(F)F)cc(C(F)(F)F)c2)[C@H]1c1ccc(CO)cc1

>  <measurement name>
composite z-score

>  <reported value>
0.325

$$$$
>  <compound>
CCCCC(=C=CC[C@H](O)c1ccccc1OCCO)C[C@H](O)c1ccccn1

>  <measurement name>
composite z-score

>  <reported value>
1.54

$$$$
>  <compound>
O=C1OCCC=C[C@H]2OC34C=CCN(Cn5nnc6ccccc65)C(=O)[C@H]3N(CCCCCO)C(=O)[C@@H]4C12 (stereo partly drawn)

>  <measurement name>
composite z-score

>  <reported value>
0.0469

$$$$
>  <compound>
CO[C@H]1O[C@H](CO)[C@@H](OC(=O)Nc2ccc(C(F)(F)F)cc2)[C@H](OC(=O)Nc2ccccc2)[C@H]1OC(=O)Nc1ccccc1

>  <measurement name>
composite z-score

>  <reported value>
0.0729

$$$$
>  <compound>
CO[C@H]1O[C@H](CO)[C@@H](OC(=O)Nc2cccc(F)c2)[C@H](OC(=O)Nc2ccc3c(c2)OCO3)[C@H]1OC(=O)Nc1ccc2c(c1)OCO2

>  <measurement name>
composite z-score

>  <reported value>
0.674

$$$$
